# target.under.test: human CD33 L23A (human, UniProt P20138 18-364)
# Sequence (P20138 18-364 L23A limits assumed): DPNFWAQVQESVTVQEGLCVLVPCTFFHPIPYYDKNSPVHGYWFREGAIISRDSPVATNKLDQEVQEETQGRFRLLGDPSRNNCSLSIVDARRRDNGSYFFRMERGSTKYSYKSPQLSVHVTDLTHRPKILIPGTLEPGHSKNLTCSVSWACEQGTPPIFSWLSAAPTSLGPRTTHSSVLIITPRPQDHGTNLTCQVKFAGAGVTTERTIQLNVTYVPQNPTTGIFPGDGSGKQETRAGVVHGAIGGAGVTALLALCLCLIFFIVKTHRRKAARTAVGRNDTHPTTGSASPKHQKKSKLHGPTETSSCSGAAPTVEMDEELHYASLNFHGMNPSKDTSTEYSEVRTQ
# measurement.protocol: alanine scan, flow cytometry;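 further: HEK293-T cells transiently expressing single-residue alanine mutants of CD33 (alanine swapped to serine), antibody binding read by fluorescence in duplicate, background-subtracted, expressed relative to wild-type CD33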
Measured Mean % WT Binding, listed per entry.
Give just the number in % WT; leave the unit off.

Example entries begin here.
Refmab #1 (antibody, V domains shown, Full-length format is human IgG1 (Absolute Antibody Ab00283-10.0); The alanine scan used IgG or Fab; also called hP67.6) VH: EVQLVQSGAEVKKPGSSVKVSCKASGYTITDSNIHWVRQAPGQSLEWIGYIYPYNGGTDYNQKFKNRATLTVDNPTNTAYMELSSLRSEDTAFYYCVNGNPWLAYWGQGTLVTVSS VL: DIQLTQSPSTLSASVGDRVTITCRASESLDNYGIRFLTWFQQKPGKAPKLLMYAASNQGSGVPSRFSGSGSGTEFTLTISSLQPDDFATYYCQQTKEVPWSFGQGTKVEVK = 82.7
Refmab #3 (antibody, V domains shown, Full-length format is human IgG1 Fc silent (PG-LALA); The alanine scan used IgG or Fab) VH: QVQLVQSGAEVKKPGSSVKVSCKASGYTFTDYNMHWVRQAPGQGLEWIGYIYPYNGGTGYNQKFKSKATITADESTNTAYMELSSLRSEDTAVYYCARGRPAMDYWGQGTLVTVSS VL: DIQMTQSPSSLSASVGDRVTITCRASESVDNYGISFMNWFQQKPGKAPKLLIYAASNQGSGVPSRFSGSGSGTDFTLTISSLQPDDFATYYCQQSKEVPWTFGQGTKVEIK = 91.5

Fill in reported Mean % WT Binding for this entry: Refmab #4 (antibody, V domains shown, Full-length format is human IgG1 Fc silent (PG-LALA); The alanine scan used IgG or Fab) VH: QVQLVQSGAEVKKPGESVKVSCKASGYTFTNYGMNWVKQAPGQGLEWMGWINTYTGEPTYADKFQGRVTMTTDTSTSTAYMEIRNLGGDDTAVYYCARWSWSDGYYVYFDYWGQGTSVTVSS VL: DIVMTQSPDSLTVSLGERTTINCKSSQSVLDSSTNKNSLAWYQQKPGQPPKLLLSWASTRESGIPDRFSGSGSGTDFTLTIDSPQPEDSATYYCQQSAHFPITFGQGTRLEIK
23.7
